PROCEDURE_SUMMARY: CHI Log D procedure
Format: physicochemical
REPORTED_CONDITIONS: pH 7.4
MEASUREMENT_LABEL: CHI Log D
Give bare numbers.

Worked cases, CHI Log D given:
>  <COMPOUND>
CC[C@H](C)[C@@H]1NC(=O)[C@H](CC(=O)O)NC(=O)[C@]2(CC=CCCCC3(CCCC=CCCCCCC[C@@](C)(C(=O)N[C@@H](Cc4ccccc4)C(=O)N[C@@H](Cc4csc5ccccc45)C(=O)N[C@@H](CCC(N)=O)C(N)=O)NC(=O)[C@H](CCC(N)=O)NC(=O)[C@H](Cc4ccccc4)NC(=O)[C@H](C)NC(=O)[C@H](CCC(N)=O)NC(=O)[C@H](CCC(=O)O)NC(=O)[C@H](CC(=O)O)NC3=O)NC1=O)CCCN2C(C)=O (stereo partly shown) [I-654]

>  <CHI Log D>
2.121

$$$$
>  <COMPOUND>
CC(=O)N1CCC[C@]12CC=CCCCC1(CCCC=CCCCOC(=O)N3CC[C@@](C(=O)N[C@@H](Cc4ccsc4)C(=O)N[C@@H](Cc4csc5ccccc45)C(=O)N[C@@H](CCC(N)=O)C(N)=O)(C3)NC(=O)[C@H](CC(N)=O)NC(=O)[C@H](Cc3ccccc3)NC(=O)[C@H](C)NC(=O)[C@H](C)NC(=O)[C@H](Cc3cccc(C(=O)O)c3)NC(=O)[C@H](CC(=O)O)NC1=O)NC(=O)[C@H](CC(C)(C)C)NC(=O)[C@H](CC(=O)O)NC2=O (stereo partly shown) [I-977]

>  <CHI Log D>
1.87

$$$$
>  <COMPOUND>
CC(=O)N[C@@H](Cc1ccccc1)C(=O)N[C@@H](CC(=O)O)C(=O)N[C@@H](C)C(=O)N[C@]1(C)CCN(C)C(=O)OCC=CCC[C@@](C)(C(=O)N[C@@H](Cc2ccccc2)C(=O)N[C@@H](Cc2c[nH]c3ccccc23)C(=O)N[C@@H](CCC(N)=O)C(N)=O)NC(=O)[C@H](C(C)C)NC(=O)[C@H](Cc2ccccc2)NC(=O)[C@H](C)NC(=O)[C@H](C)NC(=O)[C@H](CC(=O)O)NC(=O)[C@H](CC(=O)O)NC1=O

>  <CHI Log D>
1.09

$$$$
>  <COMPOUND>
CC(=O)N1CCC[C@]12CC=CCCCC1(CCCC=CCCCCCC[C@@](C)(C(=O)N[C@@H](Cc3cccc4ccccc34)C(=O)N[C@@H](Cc3c[nH]c4ccccc34)C(=O)N[C@@H](CCC(N)=O)C(N)=O)NC(=O)[C@H](C(C)C)NC(=O)[C@H](Cc3ccccc3)NC(=O)[C@H](C)NC(=O)[C@H](C)NC(=O)[C@H](CC(=O)O)NC(=O)[C@H](CC(=O)O)NC1=O)NC(=O)[C@H](C)NC(=O)[C@H](CC(=O)O)NC2=O (stereo partly shown) [I-276]

>  <CHI Log D>
2.207

$$$$
>  <COMPOUND>
CC(=O)N1CCC[C@]12CC=CCCCC1(CCCC=CCCCOC(=O)N3CC[C@@](C(=O)N[C@@H](Cc4ccsc4)C(=O)N[C@@H](Cc4csc5ccccc45)C(=O)N[C@@H](CO)C(N)=O)(C3)NC(=O)[C@H](Cc3ccccc3)NC(=O)[C@H](Cc3ccccc3)NC(=O)[C@H](C)NC(=O)[C@H](C)NC(=O)[C@H](CN(CC(=O)O)CC(F)(F)F)NC(=O)[C@H](CC(=O)O)NC1=O)NC(=O)[C@H](CC(C)(C)C)NC(=O)[C@H](CC(=O)O)NC2=O (stereo partly shown) [I-963]

>  <CHI Log D>
2.117

$$$$

Batch request: CHI Log D per item, same order as input.
1. CC(=O)N1CCC[C@]12CC=CCCCC1(CCCC=CCCCCCC[C@@](C)(C(=O)N[C@@H](Cc3ccccc3)C(=O)N[C@@H](Cc3csc4ccccc34)C(=O)N[C@@H](CC(N)=O)C(N)=O)NC(=O)[C@H](CC(N)=O)NC(=O)[C@H](Cc3ccccc3)NC(=O)[C@H](C)NC(=O)[C@H](C)NC(=O)[C@H](CCC(=O)O)NC(=O)[C@H](CC(=O)O)NC1=O)NC(=O)[C@H](CC(C)C)NC(=O)[C@H](CC(=O)O)NC2=O (stereo partly shown) [I-753]
2. CC(=O)N1CCC[C@]12CC=CCCCC1(CCCC=CCCCCCC[C@@](C)(C(=O)N[C@@H](Cc3ccccc3)C(=O)N[C@@H](Cc3csc4ccccc34)C(=O)N[C@@H](CCC(N)=O)C(=O)N[C@@H](C)C(N)=O)NC(=O)[C@H](CC(N)=O)NC(=O)[C@H](Cc3ccccc3)NC(=O)[C@H](C)NC(=O)[C@H](C)NC(=O)[C@H](CCC(=O)O)NC(=O)[C@H](CC(=O)O)NC1=O)NC(=O)[C@H](CC(C)C)NC(=O)[C@H](CC(=O)O)NC2=O (stereo partly shown) [I-730]
3. CC[C@H](C)[C@@H]1NC(=O)[C@H](CC(=O)O)NC(=O)[C@]2(CC=CCCCC3(CCCC=CCCCCCC[C@@](C)(C(=O)N[C@@H](Cc4ccccc4)C(=O)N[C@@H](Cc4ccccc4)C(=O)N[C@@H](CCC(N)=O)C(N)=O)NC(=O)[C@H](CCC(N)=O)NC(=O)[C@H](Cc4csc5ccccc45)NC(=O)[C@H](C)NC(=O)[C@H](C)NC(=O)[C@H](CCC(=O)O)NC(=O)[C@H](CC(=O)O)NC3=O)NC1=O)CCCN2C(C)=O (stereo partly shown) [I-585]
4. CC(=O)N1CCC[C@]12CC=CCCCC1(CCCC=CCCCCCC[C@@](C)(C(=O)N[C@@H](Cc3ccccc3)C(=O)N[C@@H](Cc3csc4ccccc34)C(=O)N[C@@H](CCC(N)=O)C(N)=O)NC(=O)[C@H](CCC(N)=O)NC(=O)[C@H](Cc3ccccc3)NC(=O)[C@H](C)NC(=O)[C@H](C)NC(=O)[C@H](CC(=O)O)NC(=O)[C@H](CC(=O)O)NC1=O)NC(=O)[C@H](CC(C)C)NC(=O)[C@H](CC(=O)O)NC2=O (stereo partly shown) [I-558]
5. CC(=O)N1CCC[C@]12CC=CCCCC1(CCCC=CCCCOC(=O)N3CC[C@@](C(=O)N[C@@H](Cc4cccc(Cl)c4)C(=O)N[C@@H](Cc4csc5ccccc45)C(=O)N[C@@H](CCC(N)=O)C(N)=O)(C3)NC(=O)[C@H](CC(N)=O)NC(=O)[C@H](Cc3ccccc3)NC(=O)[C@H](C)NC(=O)[C@H](C)NC(=O)[C@H](CN(CC(=O)O)CC(F)(F)F)NC(=O)[C@H](CC(=O)O)NC1=O)NC(=O)[C@H](CC(C)(C)C)NC(=O)[C@H](CC(=O)O)NC2=O (stereo partly shown) [I-925]

2.432
2.377
2.364
2.308
2.344
